Tested on: CCRF-CEM leukemia
Assay: NCI tumour cell line growth inhibition, 48 h
Where a SMILES comes first, the peptide text is derived from it. The star is where a group is joined. Cbz = O=C(OCc1ccccc1)*; CH2Cl = ClC*
Reported values of TGI for individual entries

{"COMPOUND": "COc1ccc(/C=C2\\N=C(SC)N(CN3CCOCC3)C2=O)cc1", "TGI": "> 100 µM"}
{"COMPOUND": "O=C(Nc1nc(C23CC4CC(CC(C4)C2)C3)cs1)c1cc2ccc(O)cc2oc1=O", "TGI": "68.1 µM"}
{"COMPOUND": "CC(C)(C)c1ccc(O)c(C(O)c2ccncc2)c1 (configuration not stated)", "TGI": "> 100 µM"}
{"COMPOUND": "CN1C(=O)N(C)C2C1NN=c1s/c(=C\\c3ccc(Cl)cc3Cl)c(=O)n12 (configuration not stated)", "TGI": "> 100 µM"}
{"COMPOUND": "O=C(/C=C/c1cc2ccccc2o1)N1CCN(c2ccccn2)CC1", "TGI": "> 100 µM"}
{"COMPOUND": "O=c1[nH]nc(Cc2ccccc2)n1/N=C/c1ccccc1O", "TGI": "> 100 µM"}
{"COMPOUND": "CN1C2CCC1CC(=CCOC(c1ccc(F)cc1)c1ccc(F)cc1)C2", "TGI": "> 100 µM"}
{"COMPOUND": "COc1cc2c(c(OC)c1OC)-c1ccc(SC)c(=O)cc1C(NC=O)CC2 (configuration not stated)", "TGI": "> 74.8 µM"}
{"COMPOUND": "O=C(CSc1nc2ccccc2nc1-c1ccccc1)Nc1ccc(F)cc1", "TGI": "> 100 µM"}
{"COMPOUND": "CC(C)(C)OC(=O)[C@H]1CCC(=S)N1Cc1ccccc1", "TGI": "> 100 µM"}
{"COMPOUND": "C[C@H](CCC(=O)O)[C@H]1CC[C@H]2[C@@H]3CC[C@@H]4C[C@H](O)CC[C@]4(C)[C@H]3C[C@H](O)[C@]12C", "TGI": "63.8 µM"}
{"COMPOUND": "O=C1C=CC(=O)c2cc3cc(CBr)ccc3cc21", "TGI": "> 100 µM"}
{"COMPOUND": "CCC[CH2][Sn]([Cl])([CH2]CCC)[CH2]CCC", "TGI": "0.225 µM"}
{"COMPOUND": "O=C(c1ccccc1Br)C(F)(F)F", "TGI": "> 100 µM"}
{"COMPOUND": "CCC(C)COC(=O)c1ccc(N=Cc2ccc(C=Nc3ccc(C(=O)OCC(C)CC)cc3)cc2)cc1 (configuration not stated)", "TGI": "> 100 µM"}
{"COMPOUND": "Cn1c(=O)c2c(nc(Cc3ccccc3)n2CC(=O)O)n(C)c1=O", "TGI": "> 100 µM"}
{"COMPOUND": "OCC1OC(c2nc(C3=NCCCN3)cs2)C(O)C1O (configuration not stated)", "TGI": "> 100 µM"}
{"COMPOUND": "O=C1/C(=C/c2ccccc2S)N=C(c2ccccc2)N1c1nc2c(Cl)cc(Cl)cc2s1", "TGI": "13.7 µM"}
{"COMPOUND": "Cc1ccc(NC(=O)CC2CC2)cc1-c1ccc(C(=O)NCC2CC2)cc1", "TGI": "> 25 µM"}
{"COMPOUND": "COc1ccc2cc(/C=N/NC(=O)Nc3ccccc3)ccc2c1", "TGI": "> 100 µM"}
{"COMPOUND": "CCOc1ccc(NC(=O)C(=O)CC(=O)c2c(C)n([O-])c3ccccc3[n+]2=O)cc1", "TGI": "> 100 µM"}
{"COMPOUND": "O=C(Nc1nc(=S)c2c(ncn2CCOC(=O)c2ccccc2)[nH]1)c1ccccc1", "TGI": "> 100 µM"}
{"COMPOUND": "C1CN2CCN3CCN4CCN1[P+]243", "TGI": "> 100 µM"}
{"COMPOUND": "Cc1ccc(-n2c(N)c(C#N)c3[nH]nc(N)c3c2=O)cc1", "TGI": "> 100 µM"}
{"COMPOUND": "C=C(C)[C@@H]1CC[C@]2(C)[C@H](CC=C3[C@@H]4CC(C)(C)CC[C@]4(C(N)=O)CC[C@]32C)[C@@]1(C)CCC#N", "TGI": "> 100 µM"}
{"COMPOUND": "O=C(/C=C/c1cccc2ccccc12)c1ccccc1Cl", "TGI": "17.2 µM"}
{"COMPOUND": "CCOC1OC(=O)c2cc3ccc4c(c3c(-c3ccc5c(c3)OCO5)c21)OCO4 (configuration not stated)", "TGI": "> 100 µM"}
{"COMPOUND": "O=[N+]([O-])c1ccc2c(c1)C1=C(CO2)Cc2ccccc2O1", "TGI": "> 100 µM"}
{"COMPOUND": "C=C(C)[C@@H]1CC[C@]2(C(=O)NC3CCCCC3)CC[C@]3(C)[C@H](CC[C@@H]4[C@@]5(C)CCCNC(C)(C)[C@@H]5CC[C@]43C)[C@@H]12", "TGI": "6.68 µM"}
{"COMPOUND": "O=C1CCCC1CN1CCCC1 (configuration not stated)", "TGI": "1.16 µM"}
{"COMPOUND": "CC(C)CC(NC(=O)OCc1ccccc1)C(=O)NC(Cc1ccccc1)C(=O)CCl (stereo not drawn) (Cbz-Leu-Phe-CH2Cl; configuration not given here)", "TGI": "0.776 µM"}
{"COMPOUND": "CCOC(=O)C(Cc1ccc(CCCC(=O)NCCC(=O)Nc2ccc3nc(C)sc3c2)cc1)C(=O)OCC", "TGI": "> 89.3 µM"}
{"COMPOUND": "Clc1ccc2[nH]cc(-c3nnnn3-c3ccccc3)c2c1", "TGI": "> 100 µM"}
{"COMPOUND": "N#Cc1c2ccccc2cn1-c1ccc(F)cc1", "TGI": "> 100 µM"}
{"COMPOUND": "CC(OC(C)(C)C)[C@H](NC(=O)OCC(Cl)(Cl)Cl)C(=O)O (some centres not stated)", "TGI": "> 100 µM"}
{"COMPOUND": "NCc1ccccc1-c1c2nc(c(-c3ccccc3CN)c3ccc([nH]3)c(-c3ccccc3CN)c3nc(c(-c4ccccc4CN)c4ccc1[nH]4)C=C3)C=C2", "TGI": "27.1 µM"}
{"COMPOUND": "COC(=O)C1=C(C(=O)NNc2ccccc2)N(c2cccnc2Cl)C(c2ccccc2)=CC1c1ccccc1 (configuration not stated)", "TGI": "> 100 µM"}
{"COMPOUND": "S=C(S)NCNC(=S)S.[Zn+2]", "TGI": "> 100 µM"}
{"COMPOUND": "CC1(C)N=C(N)N=C(N)N1c1ccc(CCc2ccccc2)cc1", "TGI": "> 100 µM"}
{"COMPOUND": "CN(C)CCC(=O)c1ccccc1", "TGI": "62.4 µM"}
{"COMPOUND": "CCC(C)OC(=O)/C(Br)=C1/OC(=O)c2ccccc2-c2ccccc21 (configuration not stated)", "TGI": "52 µM"}
{"COMPOUND": "Cn1cc(C2=C(c3cn(CCCCO)c4ccccc34)C(=O)NC2=O)c2ccccc21", "TGI": "> 25 µM"}

* * *

System: SK-MEL-28 melanoma
Test: NCI tumour cell line growth inhibition, 48 h; in the data active = GI50 below about 0.43 µM; inactive = the rest
Labels: True = active, False = inactive

{"MOLECULE": "O=C1C=CC(=O)c2cc3cc(CBr)ccc3cc21", "TARGET_SYSTEM": "SK-MEL-28 melanoma", "ASSIGNED_CATEGORY": "False"}
{"MOLECULE": "COc1ccc(-c2nn(-c3ccc(NC(=O)c4ccc(Cl)c(Cl)c4)cc3)cc2-c2ccncc2)cc1Cl", "TARGET_SYSTEM": "SK-MEL-28 melanoma", "ASSIGNED_CATEGORY": "False"}
{"MOLECULE": "COc1ccc2[nH]cc(C3(c4c[nH]c5ccc(OC)cc45)C(=O)Nc4ccc(F)cc43)c2c1", "TARGET_SYSTEM": "SK-MEL-28 melanoma", "ASSIGNED_CATEGORY": "False"}
{"MOLECULE": "O=C1OCC2=C1C(c1cccc(Br)c1)c1cc3c(cc1N2CCO)CCC3 (stereo not given)", "TARGET_SYSTEM": "SK-MEL-28 melanoma", "ASSIGNED_CATEGORY": "True"}
{"MOLECULE": "C[C@@H]1CC[C@@H]2[C@@H]1[C@H](OC(=O)/C=C/c1ccccc1)[C@]1(C3CCCCC3)C[C@@H](OC(=O)CO)[C@@]2(C)O1", "TARGET_SYSTEM": "SK-MEL-28 melanoma", "ASSIGNED_CATEGORY": "False"}
{"MOLECULE": "C=CCCCCOc1ccccc1-c1cnc(OCCCCC=C)n1C", "TARGET_SYSTEM": "SK-MEL-28 melanoma", "ASSIGNED_CATEGORY": "False"}
{"MOLECULE": "CC[C@H]1[C@@H]2C=C[C@@H]3[C@H]4C/C=C\\C(=O)NCCC[C@@H]5NC(=O)/C(=C(O)/C=C/[C@@H]4C[C@@H]3[C@H]2C[C@H]1C)C5=O", "TARGET_SYSTEM": "SK-MEL-28 melanoma", "ASSIGNED_CATEGORY": "False"}
{"MOLECULE": "COc1cc(-c2cc(-c3cc4c([nH]c5ccccc54)c(-c4cc(OC)c(OC)c(OC)c4)n3)cc(-c3ccccc3)n2)cc(OC)c1OC", "TARGET_SYSTEM": "SK-MEL-28 melanoma", "ASSIGNED_CATEGORY": "False"}
{"MOLECULE": "C=C(Cl)C(Br)(CCl)CCC(Br)C(C)(C)Cl (stereo not given)", "TARGET_SYSTEM": "SK-MEL-28 melanoma", "ASSIGNED_CATEGORY": "False"}
{"MOLECULE": "CCSc1ncnc2c1ncn2C1OC(CO)C(O)C1O (stereo not given)", "TARGET_SYSTEM": "SK-MEL-28 melanoma", "ASSIGNED_CATEGORY": "False"}
{"MOLECULE": "CCOC(=O)C(Cc1ccc(CCCC(=O)NCCC(=O)Nc2ccc3nc(C)sc3c2)cc1)C(=O)OCC", "TARGET_SYSTEM": "SK-MEL-28 melanoma", "ASSIGNED_CATEGORY": "False"}
{"MOLECULE": "CCOC(=O)Nc1ccc(-c2nc(-c3cccc(OCCN4CCOCC4)c3)c(-c3ccnc(Br)c3)[nH]2)cc1", "TARGET_SYSTEM": "SK-MEL-28 melanoma", "ASSIGNED_CATEGORY": "False"}
{"MOLECULE": "O=C(CC1(O)C(=O)N(Cc2ccccc2)c2ccc(F)cc21)c1ccc(C(=O)NCC2CCC3(CC2)OOC2(CCCCC2)OO3)cc1 (stereo not given)", "TARGET_SYSTEM": "SK-MEL-28 melanoma", "ASSIGNED_CATEGORY": "False"}
{"MOLECULE": "O=C(N[C@@H](c1ccc(Cl)c(Cl)c1)C1CNC1)c1ccc2cnccc2c1", "TARGET_SYSTEM": "SK-MEL-28 melanoma", "ASSIGNED_CATEGORY": "True"}
{"MOLECULE": "Cc1ncc(C(=O)Nc2ccc(CN3CCN(C)CC3)c(C(F)(F)F)c2)cc1C#Cc1cnc(N)c2ccncc12", "TARGET_SYSTEM": "SK-MEL-28 melanoma", "ASSIGNED_CATEGORY": "False"}
{"MOLECULE": "CCC[CH2][Sn]([Cl])([CH2]CCC)[CH2]CCC", "TARGET_SYSTEM": "SK-MEL-28 melanoma", "ASSIGNED_CATEGORY": "True"}
{"MOLECULE": "COc1cc2c(cc1OCCCNC(=O)c1cccc3c(=O)c4ccccc4[nH]c13)N=C[C@@H]1CCCN1C2=O", "TARGET_SYSTEM": "SK-MEL-28 melanoma", "ASSIGNED_CATEGORY": "True"}
{"MOLECULE": "C#C[C@]1(O)CCC2C3CCc4cc(O)ccc4C3CC[C@@]21C (stereo not given in full)", "TARGET_SYSTEM": "SK-MEL-28 melanoma", "ASSIGNED_CATEGORY": "False"}
{"MOLECULE": "COc1cc(Cn2c(-c3ccccc3)c(Cl)c3c2-c2oncc2CC3)cc(OC)c1", "TARGET_SYSTEM": "SK-MEL-28 melanoma", "ASSIGNED_CATEGORY": "False"}
{"MOLECULE": "COc1cccc2c1C(=O)c1c(O)c3c(c(O)c1C2=O)C[C@](O)(C(=O)CO)C[C@H]3O[C@@H]1C[C@@H](NC(=O)CCCCCN(C)C2(c3ccc(F)cc3)CC3CCC2C3)[C@H](O)[C@@H](C)O1 (stereo not given in full)", "TARGET_SYSTEM": "SK-MEL-28 melanoma", "ASSIGNED_CATEGORY": "False"}
